- Test system: E. coli TESEC Mtb DapB
- PROTOCOL_NOTES: growth (OD600 after 10 h); higher = more growth (less inhibition)
- ASSAY_CONTEXT: arabinose induction (level): Low; compound 0.1 mM; raw OD600 reference: median of DMSO wells 0.227, cell-free background 0.041
Documented growth across a set of compounds

{"COMPOUND": "CCCCNc1cc(C(=O)O)cc(S(N)(=O)=O)c1Oc1ccccc1 [Bumetanide]", "RESULT": 0.215}
{"COMPOUND": "C=CC1=C(C(=O)O)N2C(=O)[C@@H](NC(=O)/C(=N\\O)c3csc(N)n3)[C@H]2SC1", "RESULT": 0.0595}
{"COMPOUND": "NC(=O)OCC(COC(N)=O)c1ccccc1 [Felbamate]", "RESULT": 0.212}
{"COMPOUND": "CCOc1ccc(NC(C)=O)cc1", "RESULT": 0.224}
{"COMPOUND": "Cc1cc2cc3c(C)cc(=O)oc3c(C)c2o1", "RESULT": 0.237}

Turning to the following compound.
What the record says about CC1(C)S[C@@H]2[C@H](NC(=O)[C@H](N)c3ccccc3)C(=O)N2[C@H]1C(=O)O [Ampicillin trihydrate] : growth is 0.256

The reported measurements were obtained from the supplement of paper PMC9262897.
